Molecular target: phosphor-EGFR in H1975(L585R/T790M) mutant EGFR expressing cells (Homo sapiens, UniProt P00533, L858R/T790M)
Construct: host or cells: NCI-H1975
Sequence (P00533 25-1210 T790M/L858R): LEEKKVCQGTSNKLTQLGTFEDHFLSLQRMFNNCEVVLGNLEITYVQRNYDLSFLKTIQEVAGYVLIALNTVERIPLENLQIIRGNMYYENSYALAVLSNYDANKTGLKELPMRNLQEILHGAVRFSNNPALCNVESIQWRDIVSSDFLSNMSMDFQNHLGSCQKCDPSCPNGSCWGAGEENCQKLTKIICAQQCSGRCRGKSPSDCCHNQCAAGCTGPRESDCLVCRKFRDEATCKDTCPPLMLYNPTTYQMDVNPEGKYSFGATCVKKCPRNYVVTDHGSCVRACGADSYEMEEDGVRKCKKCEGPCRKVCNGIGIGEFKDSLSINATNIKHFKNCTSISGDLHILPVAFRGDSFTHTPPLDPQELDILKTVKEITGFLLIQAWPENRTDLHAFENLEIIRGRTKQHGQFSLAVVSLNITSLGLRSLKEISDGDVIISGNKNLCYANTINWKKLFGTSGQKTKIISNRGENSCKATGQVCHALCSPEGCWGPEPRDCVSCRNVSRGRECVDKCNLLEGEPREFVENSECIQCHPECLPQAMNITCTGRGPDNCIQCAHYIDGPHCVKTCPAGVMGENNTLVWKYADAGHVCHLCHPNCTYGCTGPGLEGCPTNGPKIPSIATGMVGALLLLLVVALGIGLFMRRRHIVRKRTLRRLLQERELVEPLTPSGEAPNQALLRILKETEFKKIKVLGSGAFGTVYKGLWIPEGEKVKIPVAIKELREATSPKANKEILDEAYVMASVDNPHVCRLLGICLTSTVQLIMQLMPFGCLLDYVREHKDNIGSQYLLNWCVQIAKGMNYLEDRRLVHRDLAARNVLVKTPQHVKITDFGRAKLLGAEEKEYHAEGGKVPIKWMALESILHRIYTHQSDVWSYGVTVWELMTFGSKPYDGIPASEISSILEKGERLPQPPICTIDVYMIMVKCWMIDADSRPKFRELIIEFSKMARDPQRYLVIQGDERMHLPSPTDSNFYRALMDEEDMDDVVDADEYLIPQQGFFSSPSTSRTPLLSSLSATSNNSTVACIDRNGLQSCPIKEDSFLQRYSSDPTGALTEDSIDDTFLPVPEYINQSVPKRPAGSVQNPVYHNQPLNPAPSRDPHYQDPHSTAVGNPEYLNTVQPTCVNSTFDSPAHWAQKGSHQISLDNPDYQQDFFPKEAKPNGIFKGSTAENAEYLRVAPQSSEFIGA
Assay: H1975 pEGFR MSD cellular assay
Assay type: cell-based
Settings: NCI-H1975 cells, serum starved, 1 hour compound incubation, pEGFR Tyr1068 MSD; read-out: HI975 pEGFR EC50
pEC50: −log10 of the molar value.
PROPERTY: pEC50

In the examples that follow, each entry is paired with its recorded pEC50.
CC(C)n1nc(N2CCC(C(N)=O)C2)c2cnc(Nc3ccnc(-c4cnn(S(=O)(=O)C5CC5)c4)n3)cc21 (stereo not shown): 7.55
CC(C)n1nc(N2CCS(=N)(=O)CC2)c2cnc(Nc3ccnc(-c4cnn(S(=O)(=O)C5CC5)c4)n3)cc21: 6.25

a = CC(C)n1ncc2cnc(Nc3ccnc(-c4cnn(CC5CC5)c4)n3)cc21
b = CC(C)n1nc(N2CCC(O)C2=O)c2cnc(Nc3ccnc(-c4cnn(S(=O)(=O)C5CC5)c4)n3)cc21 (stereo in doubt)
# min-compare on pEC50 between a and b Which one? Tell me its label.
a

Recorded values, source patent US9951064B2.
